Reference source for all entries: paper PMC13284460

target: HPV16 E2 (Human papillomavirus type 16, UniProt P03120 1-365); test: fluorescence polarization; 5 mM Mg2+; FP: 20 mM Tris-HCl pH 7.0, 10 mM NaCl, 0.1 mg/ml BSA, 5 mM MgCl2, 1 mM DTT, room temperature, 60 min; 50 nM probe, 0-200 nM protein; details: protein: recombinant; tags: His (pET28a, Ni-NTA); HA (blots); chain copies: 2; label: 5' Cy3; single strand
Sequence (P03120 whole entry): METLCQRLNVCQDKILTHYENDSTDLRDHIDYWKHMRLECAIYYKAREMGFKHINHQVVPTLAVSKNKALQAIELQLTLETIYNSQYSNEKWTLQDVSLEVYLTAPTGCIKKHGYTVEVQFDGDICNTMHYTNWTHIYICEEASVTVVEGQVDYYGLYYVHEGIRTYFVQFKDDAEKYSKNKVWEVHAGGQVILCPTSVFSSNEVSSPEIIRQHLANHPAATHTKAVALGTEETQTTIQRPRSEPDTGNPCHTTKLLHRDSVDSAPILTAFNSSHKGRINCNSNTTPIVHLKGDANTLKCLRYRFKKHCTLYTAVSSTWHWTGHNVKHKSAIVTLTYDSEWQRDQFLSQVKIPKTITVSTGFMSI
pKd: −log10 of the molar value.

binder: GCGTCTTTACGGGTGCTTAAAAACAAAAACAAAAACAAAA (ssDNA) [Cy3-labeled 40-nt ssDNA (FP probe)]
pKd: 7.62
